Target: ATP-binding cassette sub-family B member 6 (Homo sapiens) (UniProt Q9NP58)
Sequence (Q9NP58 whole entry, looked up): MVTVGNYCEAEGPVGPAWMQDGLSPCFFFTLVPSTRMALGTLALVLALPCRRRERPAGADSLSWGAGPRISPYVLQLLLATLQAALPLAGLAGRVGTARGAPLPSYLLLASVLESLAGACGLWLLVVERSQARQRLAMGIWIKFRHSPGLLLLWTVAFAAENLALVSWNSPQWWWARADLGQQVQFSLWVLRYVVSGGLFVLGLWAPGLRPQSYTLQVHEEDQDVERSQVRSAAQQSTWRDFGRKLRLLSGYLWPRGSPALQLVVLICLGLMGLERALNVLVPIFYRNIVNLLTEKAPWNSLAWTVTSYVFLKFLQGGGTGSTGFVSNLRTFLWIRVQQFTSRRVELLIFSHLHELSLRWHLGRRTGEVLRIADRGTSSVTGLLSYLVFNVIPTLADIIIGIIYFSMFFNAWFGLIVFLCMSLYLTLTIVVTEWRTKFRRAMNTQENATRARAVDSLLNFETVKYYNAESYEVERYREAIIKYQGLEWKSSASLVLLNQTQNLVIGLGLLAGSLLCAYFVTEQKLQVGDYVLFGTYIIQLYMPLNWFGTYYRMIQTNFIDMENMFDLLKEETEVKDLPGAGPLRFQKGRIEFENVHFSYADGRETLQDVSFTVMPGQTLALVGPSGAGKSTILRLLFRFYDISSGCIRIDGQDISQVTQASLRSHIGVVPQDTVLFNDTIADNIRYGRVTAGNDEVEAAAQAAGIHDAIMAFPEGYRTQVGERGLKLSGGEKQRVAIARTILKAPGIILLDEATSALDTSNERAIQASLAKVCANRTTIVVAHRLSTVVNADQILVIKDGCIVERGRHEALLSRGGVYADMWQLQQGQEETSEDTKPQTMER
Procedure Details: ABCB6 transporter inhibitors, pilot screen, K562-ABCB6 cells, flow cytometry, validation set (AID 588550);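 note: 0% = DMSO wells and 100% = benzethonium chloride 70 µM positive control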
Condition Info: K562-ABCB6 porphyrin accumulation, 1 h, at 10 µM, stronger effect = higher value
Property Name: inhibition (%)

>>> recorded_result("CCN1C(=O)C(CC(=O)Nc2ccc(F)cc2)N(Cc2ccc3c(c2)OCO3)C1=S (stereo unspecified)")
4
>>> recorded_result("COc1cccc(OC2OC3COC(C)(C)OC3C(O)C2NC(C)=O)c1 (stereo unspecified)")
30
>>> recorded_result("CCOC(=O)c1ccc2[nH]c(C)c(CCC(C)=O)c(=O)c2c1")
6
>>> recorded_result("COc1ccc(OC)c(-c2oc3ccccc3c(=O)c2O)c1")
-4
>>> recorded_result("CN(C)CCOC(C)(c1ccccc1)c1ccccn1 (stereo unspecified)")
6
>>> recorded_result("CCOC(=O)c1cc2cc3ccccc3cc2[nH]1")
6
>>> recorded_result("N/C(=N\\OS(=O)(=O)c1ccc2ccccc2c1)c1cccnc1")
6
>>> recorded_result("COC(=O)c1cc(-c2ccc(OC)c(OC)c2)on1")
0
>>> recorded_result("C[N+]12CCCCC1C(COC(=O)c1ccc3c(c1)OCO3)CCC2 (stereo unspecified)")
12
>>> recorded_result("C[C@H](NC(=O)NCCc1ccccc1)C(=O)O")
3
>>> recorded_result("CCOc1ccc(NC(=O)N[C@@H](CCSC)C(=O)OC)cc1")
6
>>> recorded_result("COc1cccc(N2C(=O)[C@H]3C(C(=O)c4cnccn4)=NN[C@H]3C2=O)c1")
8
>>> recorded_result("C/C(=N/N1CCN(Cc2cccc3ccccc23)CC1)c1cccnc1")
5
>>> recorded_result("COc1ccc(C2C(=O)c3ccccc3C2=O)cc1")
4
>>> recorded_result("CC[C@]1(O)C[C@@H]2CN(CCc3c([nH]c4ccccc34)[C@@](C(=O)OC)(c3cc4c(cc3OC)N(C)[C@H]3[C@@](O)(C(=O)OC)[C@H](OC(C)=O)[C@]5(CC)C=CCN6CC[C@]43[C@@H]65)C2)C1")
8
>>> recorded_result("O=C1CCCN1CCCn1cnc2c([nH]c3ccc(F)cc32)c1=O")
10

====

Procedure Details: LAP4-GFP expression modulators in yeast, confirmation, cell-based, cherry picks, flow cytometry, mother/daughter gates (AID 2271);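 note: ratio of sample to DMSO plate mean so 100% equals DMSO level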
Condition Info: S. cerevisiae LAP4-GFP strain, 3 h, measured here: mother cell gate response, at 10 µM, stronger effect = higher value, 100 means same as DMSO control
Property Name: GFP response relative to DMSO (%)

>>> recorded_result("COc1ccc(N2C(=O)C(Cl)=C(Oc3cccc(OC)c3)C2=O)cc1")
227
>>> recorded_result("O=C(COC(=O)C1CCN(c2ccc(C(F)(F)F)cn2)CC1)Nc1cccc(F)c1")
100
>>> recorded_result("COc1ccc(-c2nc(NC(=O)c3cc(C(C)(C)C)nn3C)sc2C)cc1")
99.5
>>> recorded_result("O=C(Nc1ccc(S(=O)(=O)N2CCOCC2)cc1)c1ccc([N+](=O)[O-])cc1Cl")
94
>>> recorded_result("O=c1cnnc(SCc2ccc([N+](=O)[O-])cc2)[nH]1")
100
>>> recorded_result("O=C(NCCCSc1ccccc1)c1cc(Cl)ccc1O")
110
>>> recorded_result("Cc1noc(/C=C/c2cccnc2)c1[N+](=O)[O-]")
124
>>> recorded_result("COc1ccc2c(/C=C/c3cc[n+](C)cc3)c[nH]c2c1")
143
>>> recorded_result("CCCOc1ccc(C(=O)NNC(=S)NC(=O)CC)cc1")
169
>>> recorded_result("O=C(OCC(=O)N1CCN(C(=O)c2ccco2)CC1)c1cc(-c2cccc(Br)c2)nc2ccccc12")
144
>>> recorded_result("CC(=O)Nc1ccc(NC(=O)c2nc(S(=O)(=O)Cc3cccc(C)c3)ncc2Cl)cc1")
95.2
>>> recorded_result("Cn1c(=O)[nH]c(=O)c2c1nc(N1CCCCC1)n2CCOc1ccccc1")
102
>>> recorded_result("COc1ccc(CC(=O)NCc2ccccn2)cc1OC")
96.2
>>> recorded_result("Cc1n[nH]c(C)c1N1C(=O)c2cccc3c(Br)ccc(c23)C1=O")
98.5
>>> recorded_result("CC(C)(C)C1=CC=C(C(C)(C)C)C(=O)C1=O")
136
